src = patent US12410160B2

measurement.target: UniProt:P50053
experiment.summary: KHK Biochemical Assay (IC50), ADP-Glo, KHK-A
settings: average of at least two separate assays
pIC50: −log10 of the molar value.
value.kind: pIC50

| molecule | measurement.target | endpoint.result |
| --- | --- | --- |
| NC1(c2ccc(-c3nc(N4CCC5CC54)nc4c3CCC4(F)F)cc2)COC1 (stereo not shown) | UniProt:P50053 | 7.36 |
| NC1(c2ccc(-c3nc(N4CC[C@@H]4C(F)(F)F)nc4c3CCC4(F)F)cc2)CCS(=O)(=O)CC1 | UniProt:P50053 | 8.70 |
| COc1cc(-c2nc(N3C[C@@H](O)[C@@H]3C)nc3c2CCC3(F)F)cc(S(C)(=N)=O)c1 (stereo partly shown) | UniProt:P50053 | 7.49 |
| C[C@@H]1N(c2nc(-c3ccc(C4(N)COC4)cc3)c3c(n2)C(F)(F)CC3)CC1(F)F | UniProt:P50053 | 8.20 |
| CC1OC[C@]2(COc3cc(-c4nc(N5C[C@@H](O)[C@@H]5C)nc5c4CCC5(F)F)ccc32)NC1=O (single isomer, unassigned) | UniProt:P50053 | 7.12 |
| C[C@H]1[C@H](O)CN1c1nc(-c2ccc(C(F)F)c(S(C)(=N)=O)c2)c2c(n1)C(F)(F)CC2 (stereo partly shown) | UniProt:P50053 | 7.55 |
| NC1(c2ccc(-c3nc(N4CC[C@H]4C(F)F)nc4c3CCC4(F)F)cc2)COC1 (single isomer, unassigned) | UniProt:P50053 | 7.02 |
| CCN1C(=O)NC2(COc3cc(-c4nc(N5C[C@@H](O)[C@@H]5C)nc5c4CCC5(F)F)ccc32)C1=O (stereo partly shown) | UniProt:P50053 | 7.85 |

A. C[C@H]1[C@H](O)CN1c1nc(-c2ccc3c(c2)CC[C@@H]3NS(C)(=O)=O)c2c(n1)C(F)(F)CC2
B. C[C@H]1[C@H](O)CN1c1nc(-c2ccc3c(c2)COC[C@@H]3NS(=O)(=O)C2CC2)c2c(n1)C(F)(F)CC2
C. C[C@H]1CCN1c1nc2c(c(-c3ccc4c(c3)[nH]c(=O)n4C)n1)CCC2
Rank ascending by pIC50. Your reply should list the labels following the order given in the request. C, B, A
(C: 6.99, B: 7.60, A: 7.90)

P. C[C@H]1[C@H](O)CN1c1nc(-c2ccc3c(c2)OCC32CN(C)C(=O)N2)c2c(n1)C(F)(F)CC2 (stereo partly shown)
Q. NC1(c2ccc(-c3nc(N4CC[C@@H]4CF)nc4c3CCC4(F)F)cc2)COC1
Which of these two has the smaller recorded pIC50: P or Q ? In your reply, give the label of the chosen option. P

P. C[C@H]1[C@H](O)CN1c1nc(-c2ccc3c(c2)OC[C@]32NC(=O)OC2(C)C)c2c(n1)C(F)(F)CC2 (single isomer, unassigned)
Q. COC[C@H]1CCN1c1nc(-c2ccc(C3(N)COC3)cc2)c2c(n1)C(F)(F)CC2
R. COc1ccc(-c2nc(N3C[C@@H](O)[C@@H]3C)nc3c2CCC3(F)F)cc1S(N)(=O)=O
S. C[C@H]1CCN1c1nc2c(c(-c3cccc(C(N)=O)c3)n1)C1CC1C2 (stereo partly shown)
T. C[C@H]1CCN1c1nc2c(c(-c3ccnc(OC(F)F)c3)n1)CCC2
Rank ascending by pIC50. Your reply should list the labels following the order given in the request. T, S, Q, P, R

a. C[C@H]1[C@H](O)CN1c1nc(-c2cc(F)c3c(c2)CCC3NS(C)(=O)=O)c2c(n1)C(F)(F)CC2 (stereo partly shown)
b. COc1ccc(-c2nc(N3C[C@@H](O)[C@@H]3C)nc3c2CCC3(F)F)cc1[S@](C)(=N)=O (single isomer, unassigned)
Which of these two has the smaller recorded pIC50: a or b ? In your reply, give the label of the chosen option. a

I. C[C@H]1CCN1c1nc2c(c(-c3ccc4[nH]c(=O)[nH]c(=O)c4c3)n1)CCC2
II. C[C@H]1CCN1c1nc2c(c(-c3ccc4c(=O)[nH][nH]c(=O)c4c3)n1)CCC2
Choose between I and II : whose measured pIC50 value is numerically larger? In your reply, give the label of the chosen option. I

P. C[C@H]1[C@H](O)CN1c1nc(-c2ccc(OC(F)(F)F)c(S(C)(=N)=O)c2)c2c(n1)C(F)(F)CC2 (stereo partly shown)
Q. O=S1(=O)CCNCc2ccc(-c3nc(N4CC[C@@H]4CF)nc4c3CCC4(F)F)cc21
Choose between P and Q : whose measured pIC50 value is numerically larger? In your reply, give the label of the chosen option. Q

I. C[C@H]1[C@H](O)CN1c1nc(-c2ccc3c(c2)COC[C@@H]3NS(C)(=O)=O)c2c(n1)C(F)(F)CC2
II. COc1cc(-c2nc(N3C[C@@H](O)[C@@H]3C)nc3c2CCC3(F)F)cc2c1[C@@H](NS(C)(=O)=O)CO2 (single isomer, unassigned)
Choose between I and II : whose measured pIC50 value is numerically larger? In your reply, give the label of the chosen option. II
(II: 8.14, I: 7.85)

====

measurement.target: human KHK-C (Homo sapiens (Human), UniProt P50053)
Sequence (P50053 whole entry): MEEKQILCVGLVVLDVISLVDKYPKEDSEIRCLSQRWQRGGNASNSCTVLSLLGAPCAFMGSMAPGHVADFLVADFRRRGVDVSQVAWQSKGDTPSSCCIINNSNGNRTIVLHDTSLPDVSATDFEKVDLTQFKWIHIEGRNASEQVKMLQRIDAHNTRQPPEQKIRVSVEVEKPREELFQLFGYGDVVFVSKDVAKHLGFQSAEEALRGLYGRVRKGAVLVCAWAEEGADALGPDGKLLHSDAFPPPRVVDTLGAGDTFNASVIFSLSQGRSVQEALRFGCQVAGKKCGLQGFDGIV
experiment.summary: KHK Biochemical Assay (IC50), ADP-Glo, KHK-C
settings: ADP-Glo; average of at least two separate assays
value.kind: IC50 (µM)

I. C[C@H]1CCN1c1nc2c(c(-c3ccc(OCc4ccccc4)c(S(C)(=N)=O)c3)n1)CCC2 (some centres unmarked)
II. C[C@H]1CCN1c1nc(-c2cn[nH]c2)c2c(cnn2C)n1
Which of these two has the smaller recorded IC50: I or II ? In your reply, give the label of the chosen option. I
(I: 0.0159 µM, II: 0.22 µM)

a. COc1ccc(-c2nc(N3CC[C@@H]3C)nc3c2CCC3)cc1S(=N)(=O)c1ccc(C#N)cc1 (some centres unmarked)
b. C[C@H]1CCN1c1nc2c(c(-c3ccncc3)n1)CCC2
Which of these two has the smaller recorded IC50: a or b ? In your reply, give the label of the chosen option. a
(a: 0.0178 µM, b: 0.0991 µM)

P. C[C@H]1CCN1c1nc2c(c(-c3ccc4c(c3)S(=O)(=O)NC4)n1)CCC2
Q. C[C@H]1[C@H](O)CN1c1nc(-c2ccc(C(N)=O)cc2)c2c(n1)C(F)(F)CC2
R. C[C@H]1CCN1c1nc2c(c(-c3cc4cccc(C(N)=O)c4[nH]3)n1)CCC2
Rank ascending by IC50. Your reply should list the labels following the order given in the request. Q, P, R
(Q: 0.0064 µM, P: 0.015 µM, R: 0.0904 µM)

====

measurement.target: human KHK-A (Homo sapiens (Human), UniProt P50053)
Sequence (P50053 other isoform, or with tags, fused parts or gaps): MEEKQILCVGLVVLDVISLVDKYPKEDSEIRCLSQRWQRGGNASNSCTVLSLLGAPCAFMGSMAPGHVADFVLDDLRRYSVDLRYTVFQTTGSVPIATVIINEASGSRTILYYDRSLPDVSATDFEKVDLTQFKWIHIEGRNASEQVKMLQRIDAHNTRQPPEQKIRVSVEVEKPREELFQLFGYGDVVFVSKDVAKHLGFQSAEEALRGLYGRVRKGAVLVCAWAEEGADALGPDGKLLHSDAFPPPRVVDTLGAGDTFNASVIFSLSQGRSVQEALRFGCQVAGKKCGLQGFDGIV
experiment.summary: KHK Biochemical Assay (IC50), ADP-Glo, KHK-A
settings: ADP-Glo; average of at least two separate assays
pIC50: −log10 of the molar value.
value.kind: pIC50

The examples below pair each entry with its known result.
| compound | value.kind | endpoint.result |
| --- | --- | --- |
| C[C@H]1CCN1c1nc2c(c(-c3ccc(CNC(=O)c4ccccc4)cc3)n1)CCC2 | pIC50 | 6.77 |
| C[C@H]1[C@H](O)CN1c1nc2c(c(-c3ccc4c(c3)CNC4=O)n1)CCC2 | pIC50 | 6.87 |
| C[C@H]1CCN1c1nc2c(c(-c3ccc(C4(N5CCOCC5)CC4)cc3)n1)CCC2 | pIC50 | 6.01 |
| CNCc1cccc(-c2nc(N3CC[C@@H]3C)nc3c2CCC3)c1 | pIC50 | 7.65 |
| C[C@H]1CCN1c1nc2c(c(-c3cc4c(=O)[nH]ccc4s3)n1)CCC2 | pIC50 | 8.54 |

I. C[C@H]1CCN1c1nc2c(c(-c3ccc(C4(C(N)=O)CC4)cc3)n1)CCC2
II. C[C@H]1CCN1c1nc2c(c(-c3cccc(CNS(C)(=O)=O)c3)n1)CCC2
III. C[C@H]1[C@H](O)CN1c1nc(-c2cnc3c(c2)OC[C@@H]3NS(C)(=O)=O)c2c(n1)C(F)(F)CC2 (single isomer, unassigned)
IV. C[C@H]1CCN1c1nc2c(c(-c3cccc(NS(=O)(=O)c4cn(C)cn4)c3)n1)CCC2
V. C[C@H]1[C@H](O)CN1c1nc2c(c(-c3ccc(CN)s3)n1)CCC2
Rank ascending by pIC50. Your reply should list the labels following the order given in the request. I, IV, III, V, II

P. C[C@H]1CCN1c1nc2c(c(-c3cccc(C(=O)NCCC(N)=O)c3)n1)CCC2
Q. C[C@H]1CCN1c1nc2c(c(-c3ccc(C(C)(C)O)cc3)n1)CCC2
Which of these two has the smaller recorded pIC50: P or Q ? In your reply, give the label of the chosen option. Q

P. C[C@H]1CCN1c1nc2c(c(-c3cccc(C(=O)N4CC(CC(=O)O)C4)c3)n1)CCC2
Q. C[C@H]1CCN1c1nc2c(c(-c3ccc(-c4nnn[nH]4)cc3)n1)CCC2
R. C[C@H]1CCN1c1nc2c(c(-c3cccc(CNC(=O)CO)c3)n1)CCC2
Rank ascending by pIC50. Your reply should list the labels following the order given in the request. P, Q, R
(P: 6.54, Q: 6.93, R: 7.25)
